Attribution: paper PMC8773473

- System: HL-60 cells
- Method notes: HL-60 cell differentiation-inducing assay (NBT reduction)
- Assay type: cell-based, human
- Condition label: Homo sapiens, HL-60, 96 h; ratio of NBT-positive cells, 4 days incubation; 'Inactive' = no or week active at the concentrations below 1 μM; read-out: HL-60 Assay EC50
Property name: EC50
Answers without a unit are incomplete; give the number and then its unit.

Could you tell me which EC50 is on file for C[C@H](CCC(=O)NC#N)[C@H]1CC[C@H]2[C@@H]3CC[C@@H]4C[C@H](CC(C)(C)O)CC[C@]4(C)[C@H]3CC[C@]12C ?
0.32 nM

One more compound: C[C@H](CCC(=O)NCCS(=O)(=O)O)[C@H]1CC[C@H]2[C@@H]3CC[C@@H]4C[C@H](CC(C)(C)O)CC[C@]4(C)[C@H]3CC[C@]12C
6.56 nM

Ok, now C[C@H](CCC(=O)NCS(=O)(=O)O)[C@H]1CC[C@H]2[C@@H]3CC[C@@H]4C[C@H](CC(C)(C)O)CC[C@]4(C)[C@H]3CC[C@]12C
18.5 nM

# repeat for C[C@H](CCC(=O)O)[C@H]1CC[C@H]2[C@@H]3CC[C@@H]4C[C@H](CC(C)(C)O)CC[C@]4(C)[C@H]3CC[C@]12C
1.01 nM

* * *

- System: HL-60 cells
- Method notes: HL-60 cell differentiation-inducing assay (NBT reduction)
- Format: cell-based, human
- Condition label: Homo sapiens, HL-60, 96 h; ratio of NBT-positive cells, 4 days incubation; 'Inactive' = no or week active at the concentrations below 1 μM; read-out: HL-60 Assay EC50
Property name: pEC50
# pEC50 = -log10(concentration in molar units)

Requested read-out: pEC50. Entry: C[C@H](CCC(=O)NO)[C@H]1CC[C@H]2[C@@H]3CC[C@@H]4C[C@H](CC(C)(C)O)CC[C@]4(C)[C@H]3CC[C@]12C
8.93

// same read-out, input: CONC(=O)CC[C@@H](C)[C@H]1CC[C@H]2[C@@H]3CC[C@@H]4C[C@H](CC(C)(C)O)CC[C@]4(C)[C@H]3CC[C@]12C
8.84

Request: C[C@H](CCC(=O)NCCCC(=O)O)[C@H]1CC[C@H]2[C@@H]3CC[C@@H]4C[C@H](CC(C)(C)O)CC[C@]4(C)[C@H]3CC[C@]12C
9.19
